biological target: human ether-à-go-go-related gene (hERG) potassium channel (human, UniProt Q12809); assay: primary screen, population patch clamp on CHO cells stably expressing hERG; higher = less effect of the substance
Sequence (Q12809 whole entry, looked up): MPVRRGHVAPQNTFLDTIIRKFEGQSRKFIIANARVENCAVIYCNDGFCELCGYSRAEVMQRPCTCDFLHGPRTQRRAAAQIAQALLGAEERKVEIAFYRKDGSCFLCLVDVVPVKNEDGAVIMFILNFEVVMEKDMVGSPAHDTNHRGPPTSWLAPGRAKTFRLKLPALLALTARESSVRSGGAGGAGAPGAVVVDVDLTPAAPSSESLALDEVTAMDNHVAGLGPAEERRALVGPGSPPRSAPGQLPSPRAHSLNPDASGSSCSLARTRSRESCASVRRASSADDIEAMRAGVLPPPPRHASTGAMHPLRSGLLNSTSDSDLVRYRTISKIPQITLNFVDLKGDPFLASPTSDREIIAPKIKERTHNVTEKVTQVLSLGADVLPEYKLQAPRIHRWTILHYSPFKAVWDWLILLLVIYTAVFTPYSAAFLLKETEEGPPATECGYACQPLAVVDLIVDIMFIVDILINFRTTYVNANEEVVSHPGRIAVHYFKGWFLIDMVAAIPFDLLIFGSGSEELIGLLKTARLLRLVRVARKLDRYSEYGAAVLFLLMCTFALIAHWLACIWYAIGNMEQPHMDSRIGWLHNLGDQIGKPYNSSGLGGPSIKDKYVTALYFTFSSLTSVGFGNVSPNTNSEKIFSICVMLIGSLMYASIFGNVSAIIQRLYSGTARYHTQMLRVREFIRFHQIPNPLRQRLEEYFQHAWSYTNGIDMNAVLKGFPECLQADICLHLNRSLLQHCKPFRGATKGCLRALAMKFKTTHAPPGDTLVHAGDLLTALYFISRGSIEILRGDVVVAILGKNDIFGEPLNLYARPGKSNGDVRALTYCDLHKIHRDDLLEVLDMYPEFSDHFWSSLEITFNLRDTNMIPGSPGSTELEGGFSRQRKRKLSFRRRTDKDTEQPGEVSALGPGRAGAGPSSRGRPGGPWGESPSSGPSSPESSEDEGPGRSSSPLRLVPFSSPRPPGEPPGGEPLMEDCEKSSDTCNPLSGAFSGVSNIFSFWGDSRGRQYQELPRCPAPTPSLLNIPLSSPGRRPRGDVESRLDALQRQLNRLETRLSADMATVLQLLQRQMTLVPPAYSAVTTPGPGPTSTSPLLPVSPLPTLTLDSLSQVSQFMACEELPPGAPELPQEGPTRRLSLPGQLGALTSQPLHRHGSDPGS
The campaign covered roughly 310,000 compounds. About 2,200 (0.71%) showed an effect of 50% or more. Effects have a minus sign here. This excerpt belongs to a sample that is enriched for strong results.
metric: hERG current change (%, negative = inhibition) at 1uM
Provide a numeric answer, followed by its unit.

Worked cases, hERG current change (%, negative = inhibition) at 1uM given:
compound	target.under.test	result
O=C(CSc1cccc[n+]1[O-])C12CC3CC(CC(C3)C1)C2	human ether-à-go-go-related gene (hERG) potassium channel (human, UniProt Q12809)	6.16%
CC(=O)Nc1ccc(N(C(=O)c2ccccn2)C(C(=O)NC2CCCCC2)c2ccc(F)cc2)cc1 (centres unmarked)	human ether-à-go-go-related gene (hERG) potassium channel (human, UniProt Q12809)	12.2%
COCCCNC(=O)CCc1nc2cccnc2n1Cc1ccccc1	human ether-à-go-go-related gene (hERG) potassium channel (human, UniProt Q12809)	-11.9%
CCCCNC(=O)CCc1nc2cccnc2n1Cc1ccccc1	human ether-à-go-go-related gene (hERG) potassium channel (human, UniProt Q12809)	-34.7%

The reported hERG current change (%, negative = inhibition) at 1uM of the compound COc1cc(OC)cc(C(=O)Nc2ccc3c(c2)OCCO3)c1 was 7.93%
